Entries and their measured Ca follow.
Species on record: Rattus norvegicus
ASSAY: Open TG-GATES - Regimen: Single
Format: toxicity, organism-based, Sprague-Dawley
Parameters: regimen Single, gender Male, age 6 weeks
TEST_CONTEXT: in vivo, po, 0 mg/kg, 6 h, tissue Plasma, route gavage, dose level Control
Kindly provide the numeric value in mg/dL only, without the unit symbol.

COMPOUND: OCCOCCN1CCN(C(c2ccccc2)c2ccc(Cl)cc2)CC1 (centres undefined) [HYDROXYZINE]
UNIT_INFO: mg/dL
Ca: 10.9
//
COMPOUND: CCc1oc2ccccc2c1C(=O)c1cc(Br)c(O)c(Br)c1
UNIT_INFO: mg/dL
Ca: 10.5
//
COMPOUND: ClC(Cl)(Cl)Cl [CARBON TETRACHLORIDE]
UNIT_INFO: mg/dL
Ca: 10.7

Provide one value: measured Ca of CCC1(c2ccccc2)C(=O)NC(=O)NC1=O
10.8

Provide one value: measured Ca of O=NN(CCCl)C(=O)NC1CCCCC1
11.1

Provide one value: measured Ca of CC1=C(CC(=O)O)c2cc(F)ccc2/C1=C\c1ccc([S+](C)[O-])cc1 (centres undefined)
10.6

Provide one value: measured Ca of CC(C)N(CCC(C(N)=O)(c1ccccc1)c1ccccn1)C(C)C (centres undefined) [DISOPYRAMIDE]
10.8

Provide one value: measured Ca of CN(C)C(=N)N=C(N)N
10.7

Provide one value: measured Ca of CC[C@H]1[C@@H]2C[C@H]3[C@@H]4N(C)c5ccccc5[C@]45C[C@@H]([C@@H]2[C@H]5O)N3[C@@H]1O
10.7

====

Species on record: Rattus norvegicus
ASSAY: Open TG-GATES - Regimen: Daily Repeat
Format: toxicity, organism-based, Sprague-Dawley
Set-up: regimen Daily Repeat, gender Male, age 6 weeks
TEST_CONTEXT: in vivo, po, 0 mg/kg, 72 h, tissue Blood, route gavage, dose level Control, time 3 day
MEASURED_QUANTITY: MCH (pg)
Kindly provide the numeric value in pg only, without the unit symbol.

Examples from the recorded data:
COMPOUND: CC[C@H]1[C@@H]2C[C@H]3[C@@H]4N(C)c5ccccc5[C@]45C[C@@H]([C@@H]2[C@H]5O)N3[C@@H]1O [AJMALINE]
UNIT_INFO: pg
MEASURED_RESULT: 21.1

COMPOUND: OCCOCCN1CCN(C(c2ccccc2)c2ccc(Cl)cc2)CC1 (stereo not given) [HYDROXYZINE]
UNIT_INFO: pg
MEASURED_RESULT: 21.1

Provide one value: measured MCH of CCc1oc2ccccc2c1C(=O)c1cc(Br)c(O)c(Br)c1 [BENZBROMARONE]
22.5

Provide one value: measured MCH of CN(C)CCC=C1c2ccccc2COc2ccccc21 [DOXEPIN]
21.4

Provide one value: measured MCH of O=NN(CCCl)C(=O)NC1CCCCC1 [LOMUSTINE]
21.8

====

Species: Rattus norvegicus
ASSAY: Open TG-GATES - Regimen: Daily Repeat
Format: toxicity, organism-based, Sprague-Dawley
Parameters: regimen Daily Repeat, gender Male, age 6 weeks
TEST_CONTEXT: in vivo, po, 0 mg/kg, […], tissue Plasma, route gavage, dose level Control, time 7 day
MEASURED_QUANTITY: Cl (meq/L)
Kindly provide the numeric value in meq/L only, without the unit symbol.

Examples from the recorded data:
MOLECULE: CC(C)N(CCC(C(N)=O)(c1ccccc1)c1ccccn1)C(C)C (centres undefined) [DISOPYRAMIDE]
UNIT_INFO: meq/L
Cl: 106.6
//
MOLECULE: CC1=C(CC(=O)O)c2cc(F)ccc2/C1=C\c1ccc([S+](C)[O-])cc1 (centres undefined)
UNIT_INFO: meq/L
Cl: 104.4
//
MOLECULE: O=NN(CCCl)C(=O)NC1CCCCC1
UNIT_INFO: meq/L
Cl: 105.2
//
MOLECULE: CCc1oc2ccccc2c1C(=O)c1cc(Br)c(O)c(Br)c1
UNIT_INFO: meq/L
Cl: 106.5
//
MOLECULE: CCC1(c2ccccc2)C(=O)NC(=O)NC1=O
UNIT_INFO: meq/L
Cl: 104.6

Provide one value: measured Cl of OCCOCCN1CCN(C(c2ccccc2)c2ccc(Cl)cc2)CC1 (centres undefined) [HYDROXYZINE]
105.2

Provide one value: measured Cl of CN(C)C(=N)N=C(N)N
105.2

Provide one value: measured Cl of CC[C@H]1[C@@H]2C[C@H]3[C@@H]4N(C)c5ccccc5[C@]45C[C@@H]([C@@H]2[C@H]5O)N3[C@@H]1O
104.2

Provide one value: measured Cl of ClC(Cl)(Cl)Cl [CARBON TETRACHLORIDE]
104

====

Entries and their measured Fbg follow.
Species on record: Rattus norvegicus
ASSAY: Open TG-GATES - Regimen: Daily Repeat
Assay type: toxicity, organism-based, Sprague-Dawley
Design: regimen Daily Repeat, gender Male, age 6 weeks
TEST_CONTEXT: in vivo, po, 0 mg/kg, […], tissue Blood, route gavage, dose level Control, time 7 day

Examples from the recorded data:
COMPOUND: CCC1(c2ccccc2)C(=O)NC(=O)NC1=O [PHENOBARBITAL]
Fbg: 224.8 mg/dL
--
COMPOUND: CC(C)N(CCC(C(N)=O)(c1ccccc1)c1ccccn1)C(C)C (stereo unspecified) [DISOPYRAMIDE]
Fbg: 324 mg/dL
--
COMPOUND: CCc1oc2ccccc2c1C(=O)c1cc(Br)c(O)c(Br)c1 [BENZBROMARONE]
Fbg: 236.4 mg/dL
--
COMPOUND: CN(C)C(=N)N=C(N)N [METFORMIN]
Fbg: 272.8 mg/dL
--
COMPOUND: CCCCc1oc2ccccc2c1C(=O)c1cc(I)c(OCCN(CC)CC)c(I)c1 [AMIODARONE]
Fbg: 218.2 mg/dL
--
COMPOUND: O=NN(CCCl)C(=O)NC1CCCCC1 [LOMUSTINE]
Fbg: 241.8 mg/dL

Provide one value: measured Fbg of OCCOCCN1CCN(C(c2ccccc2)c2ccc(Cl)cc2)CC1 (stereo unspecified) [HYDROXYZINE]
282.2 mg/dL

Provide one value: measured Fbg of ClC(Cl)(Cl)Cl [CARBON TETRACHLORIDE]
249.4 mg/dL

Provide one value: measured Fbg of CN(C)CCC=C1c2ccccc2COc2ccccc21 [DOXEPIN]
293.2 mg/dL

Provide one value: measured Fbg of CC[C@H]1[C@@H]2C[C@H]3[C@@H]4N(C)c5ccccc5[C@]45C[C@@H]([C@@H]2[C@H]5O)N3[C@@H]1O [AJMALINE]
220.4 mg/dL

Provide one value: measured Fbg of CC1=C(CC(=O)O)c2cc(F)ccc2/C1=C\c1ccc([S+](C)[O-])cc1 (stereo unspecified)
306.6 mg/dL

====

Species on record: Rattus norvegicus
ASSAY: Open TG-GATES - Regimen: Single
Format: toxicity, organism-based, Sprague-Dawley
Set-up: regimen Single, gender Male, age 6 weeks
TEST_CONTEXT: in vivo, po, 0 mg/kg, 9 h, route gavage, dose level Control
Returns TRUE if the recorded TERMINAL_BW is greater than or equal to 200 g, and FALSE otherwise.

For orientation, consider the following solved cases.
MOLECULE: OCCOCCN1CCN(C(c2ccccc2)c2ccc(Cl)cc2)CC1 (stereo not given) [HYDROXYZINE]
DISCRETE_LABEL: FALSE
//
MOLECULE: CCC1(c2ccccc2)C(=O)NC(=O)NC1=O [PHENOBARBITAL]
DISCRETE_LABEL: TRUE
//
MOLECULE: CC[C@H]1[C@@H]2C[C@H]3[C@@H]4N(C)c5ccccc5[C@]45C[C@@H]([C@@H]2[C@H]5O)N3[C@@H]1O [AJMALINE]
DISCRETE_LABEL: FALSE

Attention now shifts to the item below.
Decide: is the reported value of TERMINAL_BW for CCc1oc2ccccc2c1C(=O)c1cc(Br)c(O)c(Br)c1 [BENZBROMARONE] equal to or greater than 200 g?
TRUE

====

Organism: Rattus norvegicus
ASSAY: Open TG-GATES - Regimen: Single
Type: toxicity, organism-based, Sprague-Dawley
Design: regimen Single, gender Male, age 6 weeks
TEST_CONTEXT: in vivo, po, 100 mg/kg, 24 h, tissue Plasma, route gavage, dose level Low
MEASURED_QUANTITY: RALB

Examples from the recorded data:
COMPOUND: O=NN1CCOCC1
RALB: 2.8 g/dL
//
COMPOUND: CN(C)CCC=C1c2ccccc2COc2ccccc21 [DOXEPIN]
RALB: 2.6 g/dL
//
COMPOUND: CCC1(c2ccccc2)C(=O)NC(=O)NC1=O
RALB: 3.4 g/dL

Consider the record given below.
Provide one value: measured RALB of CN(C)C(=N)N=C(N)N
2.6 g/dL
